# IC50 listing for each entry below
- targetOrTestSystem: Kv1.3 potassium channel (Homo sapiens)
- Sequence (P22001 whole entry): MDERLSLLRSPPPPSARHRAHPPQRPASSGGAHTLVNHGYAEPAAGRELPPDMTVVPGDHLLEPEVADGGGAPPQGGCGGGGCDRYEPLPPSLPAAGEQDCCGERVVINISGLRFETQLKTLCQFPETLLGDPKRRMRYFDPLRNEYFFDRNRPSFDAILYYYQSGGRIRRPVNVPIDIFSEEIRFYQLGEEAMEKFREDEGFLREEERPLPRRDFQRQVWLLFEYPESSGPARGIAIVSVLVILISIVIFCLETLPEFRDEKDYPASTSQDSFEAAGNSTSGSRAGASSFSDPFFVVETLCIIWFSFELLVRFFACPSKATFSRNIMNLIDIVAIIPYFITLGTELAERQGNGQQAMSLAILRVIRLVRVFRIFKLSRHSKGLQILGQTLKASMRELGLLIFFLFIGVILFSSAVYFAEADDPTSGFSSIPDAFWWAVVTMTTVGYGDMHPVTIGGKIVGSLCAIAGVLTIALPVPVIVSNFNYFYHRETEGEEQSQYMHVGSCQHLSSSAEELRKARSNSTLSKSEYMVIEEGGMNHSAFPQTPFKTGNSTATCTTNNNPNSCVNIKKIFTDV
- assayMethodText: Kv1.3 potassium channel blocker activity, automated whole-cell patch clamp (Patchliner)
- condition: CHO-K1 cells stably expressing Kv1.3; whole cell current inhibition; read-out: Kvl.3 IC50

# molecule, targetOrTestSystem, IC50
rows = [
    ("Oc1cc(Cl)c(Cl)cc1CN1CCC2(CC1)OCCO2", "Kv1.3 potassium channel (Homo sapiens)", "< 10 µM"),
    ("OC[C@@H]1[C@H]2CN(Cc3cc(Cl)c(Cl)cc3O)C[C@@H]12", "Kv1.3 potassium channel (Homo sapiens)", "< 10 µM"),
    ("OCC1CCCCN1Cc1cc(Cl)c(Cl)cc1O (stereo not shown)", "Kv1.3 potassium channel (Homo sapiens)", "< 10 µM"),
    ("OCC1CCN(Cc2cc(Cl)c(Cl)cc2O)CC1", "Kv1.3 potassium channel (Homo sapiens)", "< 10 µM"),
    ("OCC1CCN(Cc2cc(Cl)c(Cl)cc2O)C(CO)C1 (stereo not shown)", "Kv1.3 potassium channel (Homo sapiens)", "< 10 µM"),
    ("OCC1(c2ccccc2)CCN(Cc2cc(Cl)c(Cl)cc2O)CC1", "Kv1.3 potassium channel (Homo sapiens)", "< 1 µM"),
    ("NCC1(O)CCN(Cc2cc(Cl)c(Cl)cc2O)CC1", "Kv1.3 potassium channel (Homo sapiens)", "< 1 µM"),
    ("O=C(N1CCCC1)C1(CO)CCN(Cc2cc(Cl)c(Cl)cc2O)CC1", "Kv1.3 potassium channel (Homo sapiens)", "< 10 µM"),
    ("CC1CCN(Cc2cc(Cl)c(Cl)cc2O)CC1", "Kv1.3 potassium channel (Homo sapiens)", "< 10 µM"),
    ("CC1(CO)CCN(Cc2cc(Cl)c(Cl)cc2O)CC1", "Kv1.3 potassium channel (Homo sapiens)", "< 10 µM"),
]

---

# Lookup of reported IC50 keyed by entry
- targetOrTestSystem: Kv1.3 potassium channel (Homo sapiens)
- assayMethodText: Kv1.3 potassium channel blocker activity, automated whole-cell patch clamp (Patchliner)
- condition: CHO-K1 cells stably expressing Kv1.3; whole cell current inhibition; read-out: Kvl.3 IC50
- Method: This assay is used to evaluate the disclosed compounds' activities as Kv1.3 potassium channel blockers. CHO-K1 cells stably expressing Kv1.3 were grown in DMEM containing 10% heat-inactivated FBS, 1 mM Sodium Pyruvate, 2 mM L-Glutamine and G418 (500 μg/ml). All compounds were dissolved in DMSO at 30 mM. The currents were evoked by applying 100 ms depolarizing pulses from −90 mV (holding potential) to +40 mV were applied with 0.1 Hz frequency. […]

# compound, IC50
data = [
    ("CC(c1cc(Cl)c(Cl)cc1O)N1CCC(CO)CC1 (centres unmarked) [Compound 46]", "< 10 µM"),
    ("CC(=O)NCC1(O)CCN(Cc2cc(Cl)c(Cl)cc2O)CC1 [Compound 8]", "< 10 µM"),
    ("OCC1CN(Cc2cc(Cl)c(Cl)cc2O)CCN1 (centres unmarked) [Compound 47]", "< 10 µM"),
    ("Oc1cc(Cl)c(Cl)cc1CN1CCC(O)(O)CC1 [Compound 37, trifluoroacetic acid]", "< 10 µM"),
    ("O=C(NCC1(CO)CCN(Cc2cc(Cl)c(Cl)cc2O)CC1)C(F)(F)F [Compound 13]", "< 1 µM"),
]
